- Test system: HEK293
- experiment: Cytotoxic Profiling of Annotated Libraries Using Quantitative High-Throughput Screening (AID 1296008); further: on the % scale 0 is the no-effect control and ±100 the full control effect; nearly all actives have a fitted effect of over 60% in size
- setup_conditions: Five cell lines viability, CellTiter-Glo ATP luminescence, 48-72 h; hits give low values
Inconclusive results are not listed. Activity calls are given as the source filed them. The call rests on the fitted dose curve; in most records, active means well fitted inhibition curve with a large enough effect; inconclusive means small, poorly fitted or top-dose-only effect; inactive means flat fitted curve, though single readings scatter. Where a SMILES comes first, the peptide text is derived from it. The star is where a group is joined. βNA = c1ccc2cc(N*)ccc2c1; Cbz = O=C(OCc1ccccc1)*

{"columns": ["compound", "max response"],
 "data": [
  ["CC1(C(=O)O)CCCC2(C)C3CCC4CC3(CCC12)CC4C(=O)O (centres undefined)", "1.27% (inactive)"],
  ["OC[C@H]1O[C@@H](OCc2ccccc2)[C@H](O[C@@H]2OC[C@@H](O)[C@H](O)[C@H]2O)[C@@H](O)[C@@H]1O", "0.407% (inactive)"],
  ["O=C(C[C@@H]1C(C(=O)O)=CO[C@@H](O[C@@H]2O[C@H](CO)[C@@H](O)[C@H](O)[C@H]2O)/C1=C\\CO)OCCc1ccc(O)cc1", "1.44% (inactive)"],
  ["CN[C@H](CNC(=O)N1CCC[C@@H]([C@@H](OCCNC(=O)OC)c2cccc(Cl)c2)C1)C[C@H]1CCCOC1", "0.31% (inactive)"],
  ["O=C(OCC1=CC(Cl)C(O)C(OC(=O)c2ccccc2)C1O)c1ccccc1 (centres undefined)", "-7.58% (inactive)"],
  ["CC1=C(CC/C(C)=C/C(=O)O)[C@@]2(C)CCCC(C)(C)C2CC1=O (some centres undefined)", "-5.92% (inactive)"],
  ["Cn1cc(-c2c[nH]c3ncnc(N4CCOCC4)c23)cn1", "-23.9% (inactive)"],
  ["O=C(/C=C/c1ccc(O)c(O)c1)O[C@H]1[C@@H]2C=CO[C@@H](O[C@@H]3O[C@H](CO)[C@@H](O)[C@H](O)[C@H]3O)[C@@H]2[C@@]2(CO)O[C@@H]12", "-6.64% (inactive)"],
  ["O=C(OC[C@H]1O[C@@H](Oc2ccccc2CO)[C@H](O)[C@@H](O)[C@@H]1O)c1ccccc1", "0.13% (inactive)"],
  ["C[C@H]1CC[C@@]2(OC1)O[C@H]1CC3C4CC[C@H]5C[C@@H](O[C@@H]6O[C@H](CO)[C@H](O[C@@H]7O[C@H](CO)[C@@H](O)[C@H](O[C@@H]8OC[C@@H](O)[C@H](O)[C@H]8O)[C@H]7O[C@@H]7O[C@H](CO)[C@@H](O)[C@H](O)[C@H]7O)[C@H](O)[C@H]6O)[C@H](O)C[C@]5(C)C4=CC(=O)[C@]3(C)[C@H]1[C@@H]2C (some centres undefined)", "3.61% (inactive)"],
  ["Cc1c(C)c(NCC(=O)N(C)C2CCN(Cc3ccc(C(N)=O)cc3)CC2)c(C)c(C)c1N", "-11.3% (inactive)"],
  ["CC(C)CC(NC(=O)OCc1ccccc1)C(=O)NC(CC(C)C)C(=O)NC(CCC(=O)O)C(=O)Nc1ccc2ccccc2c1 (stereo not drawn) (Cbz-Leu-Leu-Glu-βNA; configuration not given here)", "-0.688% (inactive)"],
  ["COc1ccc(C2COc3cc(O)ccc3C2)c(O)c1OC (centres undefined)", "-9.14% (inactive)"],
  ["C=CCC1=C[C@]2(OC)[C@H](C)[C@@H](c3ccc(OC)c(OC)c3)O[C@]2(OC)CC1=O", "-10.4% (inactive)"]
]}
